From: PubChem BioAssay AID861

# SUBJECT OF TEST: Toll-like receptor 4 (Homo sapiens) + Myeloid differentiation primary response protein MyD88 (Homo sapiens) (UniProt O00206+Q99836)
# Sequence (O00206 whole entry, looked up): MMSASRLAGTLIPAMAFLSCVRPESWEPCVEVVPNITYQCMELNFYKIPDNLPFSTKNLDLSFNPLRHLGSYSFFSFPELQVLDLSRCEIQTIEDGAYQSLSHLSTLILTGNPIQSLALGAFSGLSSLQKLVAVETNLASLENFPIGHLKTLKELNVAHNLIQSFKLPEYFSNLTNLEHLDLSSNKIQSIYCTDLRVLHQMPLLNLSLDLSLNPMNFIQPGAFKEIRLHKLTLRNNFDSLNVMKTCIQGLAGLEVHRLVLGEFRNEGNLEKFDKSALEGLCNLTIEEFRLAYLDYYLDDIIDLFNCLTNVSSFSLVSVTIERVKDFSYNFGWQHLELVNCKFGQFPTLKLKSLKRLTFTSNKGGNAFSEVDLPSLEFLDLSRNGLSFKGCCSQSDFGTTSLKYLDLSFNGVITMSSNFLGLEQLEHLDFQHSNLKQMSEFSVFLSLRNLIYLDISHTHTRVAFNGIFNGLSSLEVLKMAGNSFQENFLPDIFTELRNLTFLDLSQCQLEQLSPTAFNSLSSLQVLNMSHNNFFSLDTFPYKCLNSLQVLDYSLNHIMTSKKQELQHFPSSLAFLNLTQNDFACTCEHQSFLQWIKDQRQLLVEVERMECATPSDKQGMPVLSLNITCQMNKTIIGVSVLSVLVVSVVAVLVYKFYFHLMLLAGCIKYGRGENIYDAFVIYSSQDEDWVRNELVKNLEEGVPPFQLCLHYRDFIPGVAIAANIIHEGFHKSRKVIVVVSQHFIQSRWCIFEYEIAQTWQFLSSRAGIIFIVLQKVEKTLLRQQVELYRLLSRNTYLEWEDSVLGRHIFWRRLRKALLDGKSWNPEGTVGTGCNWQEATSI
# Sequence (Q99836 whole entry, looked up): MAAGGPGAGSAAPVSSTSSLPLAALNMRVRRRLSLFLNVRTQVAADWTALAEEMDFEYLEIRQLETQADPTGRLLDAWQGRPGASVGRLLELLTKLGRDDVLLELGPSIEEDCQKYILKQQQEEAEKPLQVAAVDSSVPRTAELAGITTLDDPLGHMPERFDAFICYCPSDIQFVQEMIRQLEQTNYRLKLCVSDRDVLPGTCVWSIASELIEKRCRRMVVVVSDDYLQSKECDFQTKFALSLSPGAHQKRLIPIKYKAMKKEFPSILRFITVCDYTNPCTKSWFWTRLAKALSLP
# METHOD DESCRIPTION: disruptors of TLR4 binding to MyD88 – cell-based, HeLa CL3-4, BLA complementation, FRET ratio, primary screen (AID 861);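 also: 0% = vehicle and 100% = reference inhibitor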
# REPORTED CONDITIONS: HeLa CL3-4 TLR4/MyD88 BLA complementation, at 8.4 µM, hits give high values
Out of some 200,000 compounds screened, about 360 (0.18%) were called active. The sample holds actives, similar compounds and a random draw of the others, so the mix is not that of the screen.
EXPERIMENTAL READOUT: inhibition (%)
Quick note: give the figure in %, leave out the unit.

Below: 3 compounds and their reported inhibition.
# COMPOUND, MEASUREMENT UNIT, inhibition
rows = [
    ("CCN(CC)c1ccc2cc(C(=O)O)c(=O)oc2c1", "%", 2.27),
    ("C/C=C/c1ccc(OCCOc2ccc(C=O)cc2OC)c(OC)c1", "%", -6.21),
    ("COc1ccc2cc(CCl)c(Cl)nc2c1", "%", 2.67),
]

Challenge: Entry COC(CNC(=O)Cn1ncc2ccsc2c1=O)OC has what inhibition?
Response given: -15.6

Challenge: GET /values?readout=inhibition&item= O=C1CC(c2ccccc2)=NN1c1ccc([N+](=O)[O-])cc1
Response given: 7.06

Challenge: Quick one: inhibition of Cc1ccc(Oc2cc(NC(=O)CCCn3nc(C)c([N+](=O)[O-])c3C)cc([N+](=O)[O-])c2)cc1 ?
Response given: -10.9

Challenge: Endpoint output: inhibition of CCOc1cc(NC(=S)NCc2ccco2)c(OCC)cc1NC(=O)c1ccco1 . Value?
Response given: -15.2

Challenge: Endpoint output: inhibition of O=C(Nc1ccc(Br)cn1)c1ccc([N+](=O)[O-])cc1Cl . Value?
Response given: 0.87

Challenge: Could you share which inhibition value was measured for O=C1NC(=O)C2C1C(c1ccc([N+](=O)[O-])cc1)=NN2Cc1ccccc1 (centres undefined) ?
Response given: 44.1

Challenge: What value of inhibition has been recorded for this entry: COc1cc(C(=S)NCc2ccccc2)cc(Br)c1O
Response given: -2.71

---

Catalogue of inhibition values
# SUBJECT OF TEST: Toll-like receptor 4 (Homo sapiens) + Myeloid differentiation primary response protein MyD88 (Homo sapiens) (UniProt O00206+Q99836)
# METHOD DESCRIPTION: disruptors of TLR4 binding to MyD88 – cell-based, HeLa CL3-4, BLA complementation, FRET ratio, primary screen (AID 861);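 also: 0% = vehicle and 100% = reference inhibitor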
# REPORTED CONDITIONS: HeLa CL3-4 TLR4/MyD88 BLA complementation, at 8.4 µM, hits give high values
The whole screen tested about 200,000 compounds, of which about 360 (0.18%) were called active. Shown is part of a subset that was picked to be rich in actives.
# output: bare number, implied unit %

# COMPOUND, MEASUREMENT UNIT, inhibition
records = [
    ("CSc1ccc(/C=N/N2CCN(Cc3ccccc3Cl)CC2)cc1", "%", 8.51),
    ("CN(C)CCCN1C(=O)CSC1c1ccc([N+](=O)[O-])cc1 (configuration not stated)", "%", 2.09),
    ("Cc1cccc(C)c1N1CCN(S(=O)(=O)N2CCCCC2)CC1", "%", -5.18),
    ("CCOC(=O)Cc1csc(NC(=O)CSc2ccc(Br)cc2)n1", "%", -6.41),
    ("COC(=O)Cc1nc2ccccc2[nH]1", "%", 9.21),
]

Challenge: Can you share its inhibition? I mean this compound: O=C(/C=C/c1ccc(F)cc1)Nc1cccc(S(=O)(=O)Nc2cccc(C(F)(F)F)c2)c1
Response given: -0.34

Challenge: Any idea what its inhibition is? The compound is CCCCN(CC)C(=O)c1ccc2c(c1)OCO2
Response given: -2.02

---

Reported inhibition is given for each of the following compounds.
# SUBJECT OF TEST: Toll-like receptor 4 (Homo sapiens) + Myeloid differentiation primary response protein MyD88 (Homo sapiens) (UniProt O00206+Q99836)
# METHOD DESCRIPTION: disruptors of TLR4 binding to MyD88 – cell-based, HeLa CL3-4, BLA complementation, FRET ratio, primary screen (AID 861);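 also: 0% = vehicle and 100% = reference inhibitor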
# REPORTED CONDITIONS: HeLa CL3-4 TLR4/MyD88 BLA complementation, at 8.4 µM, hits give high values
About 360 (0.18%) of roughly 200,000 compounds were called active. The full list was thinned out, with actives kept by preference.
Numeric only. Scale: %

Known inhibition results, listed for orientation:
# STRUCTURE, inhibition [%]
data = [
    ("CCOC(=O)c1sc(NC(=O)CSc2nc(O)c(Cc3ccccc3)c(=O)[nH]2)nc1C", 1.47),
    ("COc1ccc(-c2oc3ncn(Cc4ccco4)c(=N)c3c2-c2ccc(OC)cc2)cc1", -4.97),
    ("O=C(Nc1nnc(-c2ccco2)o1)c1ccc(S(=O)(=O)N2CCOCC2)cc1", 9.33),
    ("COc1ccc(NC(=S)Nc2ccc(S(N)(=O)=O)cc2)c(C)c1", -9.09),
    ("CCOC(=O)c1[nH]cnc1C(=O)Nc1ccccc1C", 4.26),
]

Query compound follows.
Challenge: Look at this compound and give its reported inhibition. CC(=O)Nc1ccc(C(=O)CSc2nc3ccc(C)cc3[nH]2)cc1
Response given: 5.15

---

# SUBJECT OF TEST: Toll-like receptor 4 (Homo sapiens) + Myeloid differentiation primary response protein MyD88 (Homo sapiens) (UniProt O00206+Q99836)
# METHOD DESCRIPTION: disruptors of TLR4 binding to MyD88 – cell-based, HeLa CL3-4, BLA complementation, FRET ratio, primary screen (AID 861);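 also: 0% = vehicle and 100% = reference inhibitor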
# REPORTED CONDITIONS: HeLa CL3-4 TLR4/MyD88 BLA complementation, at 8.4 µM
The whole screen tested about 200,000 compounds, of which about 360 (0.18%) were called active. No stated cut-off is given here; in the data, active means inhibition above about 25%; inactive means the rest. Many of the other results were omitted from the sample, so actives are more common in it than they were.
Lab note: assign the record to one of T for active, F for inactive

# COMPOUND, CAT
data = [
    ("CNc1nc(Nc2ccc(C)c(Cl)c2)nc(N)c1[N+](=O)[O-]", "F"),
]

Challenge: Query: recorded result category for Cn1cnnc1SCC(=O)Nc1ccc(N2CCOCC2)cc1 in this test
Response given: F

Challenge: // param item: Cc1cc(C)c2c(n1)sc1c(=O)n(-c3ccccc3)c(=O)[nH]c12 ; yields the recorded call
Response given: F

Challenge: State the result this test recorded for CCNC(=O)N1c2ccccc2Sc2ccccc21 .
Response given: F

Challenge: Hi, do you know how O=C(/C=C/c1ccc(N2CCOCC2)cc1)c1ccccc1 came out in this test?
Response given: T

Challenge: Hi, sorry to bother you, what did the test record for COc1ccc(C2OCC3(CO2)SC(=O)NC3=O)cc1OC (stereo unspecified) ?
Response given: F

---

Each item that follows carries a reported inhibition.
# SUBJECT OF TEST: Toll-like receptor 4 (Homo sapiens) + Myeloid differentiation primary response protein MyD88 (Homo sapiens) (UniProt O00206+Q99836)
# METHOD DESCRIPTION: disruptors of TLR4 binding to MyD88 – cell-based, HeLa CL3-4, BLA complementation, FRET ratio, primary screen (AID 861);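 also: 0% = vehicle and 100% = reference inhibitor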
# REPORTED CONDITIONS: HeLa CL3-4 TLR4/MyD88 BLA complementation, at 8.4 µM, hits give high values
Among all 200,000 compounds or so, about 360 (0.18%) were called active. The list comes from a sample in which actives are over-represented; it also holds close analogues and randomly drawn compounds.
Number in %, nothing else.

# MOLECULE, MEASURED VALUE
measured = [
    ("Cc1ccc2[nH]c(=O)c(CN3CCCCC3)c(-c3ccccc3)c2c1", 16.6),
    ("COc1ccc(NC(=S)NCC2CCN(c3ccc(OC)cc3)C2)cc1 (configuration not stated)", -0.81),
]

Challenge: Which inhibition value is on record for O=C(NNC(=S)Nc1ccccc1)c1cccc(S(=O)(=O)N2CCOCC2)c1 ?
Response given: -2.25

Challenge: What does the record list as inhibition for C[n+]1ccc(/C=C/c2c[nH]c3ccccc23)cc1 ?
Response given: 35.4

Challenge: Bench note: what inhibition did COc1ccccc1-c1nc(SC)n[nH]1 show?
Response given: -2.94

Challenge: Quick check: inhibition of COc1cc(OC)cc(-c2nnc(N(C)C(=O)c3ccncc3)s2)c1 ?
Response given: 11.3

Challenge: # query: inhibition of entry CCSc1nc(C)nc2c1oc1ccccc12
Response given: 1.7

Challenge: What value of inhibition has been recorded for this entry: Cc1cc(/C=N/NC(=O)CC2(C)OCCO2)c(C)n1-c1ccc(Cl)c(Cl)c1
Response given: -8.27

Challenge: Query: inhibition; subject: CCc1cccc(NC(=O)CCC(=O)O)c1
Response given: -11

Challenge: Using the record for COc1ccc(F)c(-c2nc(CN3CCC(c4ccccc4)CC3)c(C)o2)c1 , report its inhibition.
Response given: -6.39

Challenge: Consider the molecule shown here: C=C1c2cc(CC)ccc2NC(=O)N1c1ccc(C)cc1 What is its recorded inhibition?
Response given: 1.66

Challenge: Reported inhibition for CC1(c2ccccc2)CC(C)(C)N(C(=O)c2cc([N+](=O)[O-])cc([N+](=O)[O-])c2)c2ccccc21 (configuration not stated) : what is it?
Response given: -16.2

Challenge: Would you mind telling me what inhibition value was observed for COc1ccc(C2CC(c3cccs3)=NN2c2ccc(F)cc2)cc1OC (configuration not stated) ?
Response given: 5.58

Challenge: Look up inhibition for this molecule: O=c1c2cc3c(=O)n(CC4CCCO4)c(=O)c3cc2c(=O)n1CC1CCCO1 (configuration not stated)
Response given: 0.88
